Parameter melting point: see the listing below.
RESULT_TYPE: melting point

| MOLECULE | RESULT_TYPE | MEASURED_VALUE |
| --- | --- | --- |
| CC12CCC(C1)C1(C)Oc3ccc(C(=O)c4ccc(C=CC(=O)O)cc4)cc3C21C (stereo not given) | melting point | 242 to 243 °C |
| CCN(CC)c1nc(Cc2ccc(OC)c(OC)c2)nc2sc(C#N)c(C)c12 | melting point | 107 to 109 °C |
| C#CC(C)NC(=O)CCCCl (stereo not given) | melting point | 50 to 51 °C |
| COc1cccc(CSCCNC(=O)c2c(OC)cccc2OC)c1 | melting point | 41 to 43 °C |
| O=C1OCc2c1cc1ccc3c(c1c2-c1ccc(Cl)cc1)OCO3 | melting point | 225 to 227 °C |
| Nc1nc2c(ncn2[C@H]2C=C[C@@H](O)CC2)c(=O)[nH]1 (racemic) | melting point | > 300 °C |
| Cc1ccc(-c2nc(C)ccc2N2CCN(c3ccc(C)cc3)CC2)cc1 | melting point | 131 to 139 °C |
| COCCOC1(S(C)=O)C=CC=C(C(=O)c2cnoc2C2CC2)C1Br (stereo not given) | melting point | 86.2 to 87 °C |
| COCNC(=O)C1C(c2ccc(F)cc2)CC2CCC1N2C (stereo not given) | melting point | 140 to 142 °C |
| CCCCCCCCCCNC(=O)c1cc(C(=O)NCCCCCCCCCC)cc(N(CCCC(=O)OCC)CCCC(=O)OCC)c1 | melting point | 75 to 77 °C |
| CN1Cc2c(C(=O)OC(C)(C)C)ncn2-c2cccc(Cl)c2C1=O | melting point | 188 to 190 °C |
| Nc1nnc(-c2ccccc2Nc2cccc(C(F)(F)F)c2)o1 | melting point | 185 to 187 °C |
| CCCCOc1n[nH]c(=O)n1C | melting point | 77 °C |
| O=c1[nH]c2cc([N+](=O)[O-])c(-n3ccc(C=NO)c3)cc2n(C2CCCCC2)c1=O | melting point | 234 °C |
| CCCCCCCCCCNC(=O)c1cc(C(=O)NCCCCCCCCCC)cc(N(CC(=O)O)CC(=O)O)c1 | melting point | 164 to 167 °C |
| CCCCOc1cc(/C=C(\OCC)C(=O)O)ccc1OCCc1ccc(OS(=O)(=O)CCCC)c(F)c1 | melting point | 99 °C |
| CC(C(=O)n1c(=O)oc2ccccc21)C(O)c1ccccc1 (stereo not given) | melting point | 155 to 158 °C |
| CC(=Cc1ccccc1)COc1cc(C)c(NC=O)c(C)c1C | melting point | 152 to 154 °C |
| Cc1ccc(C(=O)c2c(-c3ccc(OCC(O)CNC(C)C)cc3)oc3ccccc23)cc1 (stereo not given) | melting point | 65 to 75 °C |
| COc1cc2c(cc1O)CCN(Cc1cc(OC)c(OC)cc1OC)C2 | melting point | 152 to 153 °C |

---

RESULT_TYPE: melting point

| MOLECULE | MEASURED_VALUE |
| --- | --- |
| CN1CCN(c2c(F)c(NCc3ccccc3)c3c(=O)c(C(=O)O)cn(C4CC4)c3c2F)CC1 | 132 to 133 °C |
| Cc1sc(C(=O)O)c(SC(C)C)c1Br | 132 to 134 °C |
| Cc1ccc(Sc2cc([N+](=O)[O-])cc3c2C(=O)OC3=O)cc1 | 180 to 182 °C |
| CN1C(=O)N(C)C(O)C1O (configuration not stated) | 140 °C |
| Cc1ccc2oc(CC(=O)O)c(C)c2c1 | 116 to 117 °C |
| COc1cc(C(=O)O)cc(OC)c1N(C)C | 65 to 69 °C |
| CCCC(C1CCCCC1)n1cncc1C(=O)O (configuration not stated) | 202 °C |
| COc1ccc2cc(C(=O)[C@H](C)Br)ccc2c1 | 90 to 91 °C |
| CCOC(=O)C1CCCC1NC(=O)C=C(C)OC (configuration not stated) | 74 °C |
| CC(C)OC(=O)c1cc(-n2nc3ccc(Cl)cn3c2=O)c(F)cc1Cl | 120 to 123 °C |
| CC(C)(C)COC(=O)Cc1cccc2c(=O)cc(C3=CCCCC3)oc12 | 138 to 139 °C |
| Cc1c(O)cc2c(c1C)NCC2 | 164 to 167 °C |

---

RESULT_TYPE: melting point

| MOLECULE | RESULT_TYPE | MEASURED_VALUE |
| --- | --- | --- |
| O=c1[nH]c2ncc(-c3ccc(F)nc3)nc2n1CC1CCOCC1 | melting point | 220 to 222 °C |
| O=C(Nc1ccc(OC(F)(F)F)cc1)N[C@H]1CC[C@H](O)CC1 | melting point | 224 to 225 °C |
| CCOc1ccccc1-c1ccc2c(c1)C=C(C(=O)Nc1ccc(CN(C)C3CCOCC3)cc1)CCS2(=O)=O | melting point | 171 to 173 °C |
| COc1cc(Nc2c(C#N)cnc3cc(Br)ccc23)c(Cl)cc1Cl | melting point | 192 to 193 °C |
| CCn1cc(C(=O)O)c(=O)c2cc(F)c(N3CCN(C)C(c4cc[nH]c4)C3)cc21 (stereo unspecified) | melting point | 150 to 152 °C |
| CC(=O)Cc1c(C)nc2ccccc2c1N | melting point | 130 to 133 °C |
| O=c1nc(-c2ccccn2)sc2cc(C(F)(F)F)ccc12 | melting point | 176 to 177 °C |
| Cc1cc2c3c(c1)C(=O)C(=O)N3CCC2 | melting point | 188 °C |
| CC(=O)Nn1cnn(C2CCc3ccccc3C2)c1=S (stereo unspecified) | melting point | 199 to 201 °C |
| COc1ccc(OC)c(Nc2ncc(C(=O)O)c(=O)[nH]2)c1 | melting point | 260 to 262 °C |
| CN1C(C(=O)Nc2cccc(Br)c2)=C(O)c2ccc3ccccc3c2S1(=O)=O | melting point | 268 to 269 °C |
| CC(=S)NCC1CN(c2ccc(C(=O)Oc3c(F)c(F)c(F)c(F)c3F)c(F)c2)C(=O)O1 (stereo unspecified) | melting point | 163 to 164 °C |
| CCCCc1nc(SCCF)c(C(=O)OCC)n1Cc1ccc(-c2ccccc2C(=O)O)cc1 | melting point | 79 °C |
| CCOC(=O)C(=O)Nc1coc2ccc(Cl)cc2c1=O | melting point | 161 to 162 °C |
| CC(C)(C)c1cc(CCC(=O)NCCNc2ccc(C#N)cc2)cc(C(C)(C)C)c1O | melting point | 146 to 148 °C |
| CCCNC(=O)c1cnc2c(c1O)CN(C(=O)OCC)CC2 | melting point | 199 to 201 °C |
| CC1(C)CC(NC(=O)c2ccccc2)CC(C)(C)N1CC#N | melting point | 182 °C |
| C=CCc1cccc2c(=O)cc(C=Cc3ccccc3)oc12 | melting point | 142 °C |
| O=[N+]([O-])c1cccc2[nH]c3c(c12)CCCCCC3 | melting point | 189 to 191 °C |
| CC(C)(F)Cn1c(N)nc2c(N)nc3ccccc3c21 | melting point | 251 °C |
| CSc1nc(-c2ccccn2)n(-c2ccc(C)c(C)c2)c(=O)c1C#N | melting point | 218 to 223 °C |

---

# Lookup of reported melting point keyed by entry

| COMPOUND | melting point |
| --- | --- |
| COCC(c1cc(C)ccc1C)S(=O)(=O)c1ccccn1 (stereo not given) | 91 to 93 °C |
| O=C1CCC(N2Cc3c(OCc4ccc(CN5CC6CCC(C5)O6)cc4)cccc3C2=O)C(=O)N1 (stereo not given) | 228 to 230 °C |
| OCC1OC(OCc2ccccc2)C(OCc2ccccc2)C(OCc2ccccc2)C1OCc1ccccc1 (stereo not given) | 99 to 101 °C |
| Cc1cccc(C)c1NC(=O)NC1CC(C)(C)c2ccccc2C1(C)C (stereo not given) | 216 to 218 °C |
| Cc1cc(Br)c(NC(=O)CBr)c(Br)n1 | 197 to 199 °C |

---

Below, each entry is listed alongside its reported melting point.
RESULT_TYPE: melting point

| COMPOUND | RESULT_TYPE | MEASURED_VALUE |
| --- | --- | --- |
| CN(C)c1ccc(-c2cc3nccnc3[nH]2)cc1CCCO | melting point | 203 to 204 °C |
| COc1cccc(OC)c1-c1ccc(C[C@H](NC(=S)c2c(Cl)cccc2Cl)C(=O)O)cc1 | melting point | 180 °C |
| COc1ccc(-c2ccc(C(=O)NCCOc3ccc(CC(Oc4ccc(C(C)C)cc4)C(=O)O)cc3)cc2)cc1 (stereo unspecified) | melting point | 159 to 160 °C |
| Nc1noc(-c2ccc(C(F)(F)F)cc2)c1Cl | melting point | 115 to 118 °C |
| COc1ccc(Cl)cc1-c1nnn(-c2ccc(C(F)(F)F)cc2Cl)c1N | melting point | 153 °C |
| CN(C)C(=O)Nc1ccc(Cl)c(N)n1 | melting point | 139 to 141 °C |
| COc1cccc(C(=O)N(C)Cc2cccc3c2C(=O)N(C2CCC(=O)NC2=O)C3=O)c1 (stereo unspecified) | melting point | 216 to 218 °C |
| Nc1cc(C(=O)O)cc(N)c1O | melting point | 205 °C |
| CNC(=O)C(=NOC)c1ccccc1C#Cc1ccccc1C | melting point | 128 to 129 °C |
| O=c1c(-c2ccccc2)c(-c2ccccc2)oc2cc(OCC(O)CNC3CC3)ccc12 (stereo unspecified) | melting point | 135 to 137 °C |
| CC(=O)Oc1ccc2c(c1)CCC1C2CCC2(C)C(OC(C)=O)CCC12 (stereo unspecified) | melting point | 128 to 129 °C |
| O=c1n(CCCN2CCC(c3c[nH]c4ccccc34)CC2)nc2ccccn12 | melting point | 112 °C |
| Nc1ccc(-c2nc3c(F)cccc3s2)cc1 | melting point | 219 to 221 °C |
| CSc1cc(Nc2cccc(C)c2)c(S(=O)(=O)NC(C)(C)C)cn1 | melting point | 178 °C |
| CCNC(=O)Nc1ccc(-c2nc3n(Cc4c(F)cccc4F)cc(C(=O)OC(C)C)c(=O)n3c2CN(C)Cc2ccccc2)cc1 | melting point | 198 to 200 °C |
| Cc1c(Nc2c(C#N)cnc3sc(-c4cccc(CN(C)C)c4)cc23)ccc2[nH]ccc12 | melting point | 227 to 229 °C |
| COc1nc(-c2ccccc2)c2ccsc2n1 | melting point | 160 to 162 °C |
| Fc1cccc2onc(Nc3ccncc3)c12 | melting point | 160 to 161 °C |
| CCCCc1c(-c2ccccc2)nc(N)nc1-c1ccccc1 | melting point | 154 to 155 °C |
| CCCCc1oc2ccccc2c1C(=O)c1ccc(NS(=O)(=O)c2cccnc2)cc1 | melting point | 130 °C |
| Cc1cccc(-c2nc(CC(=O)O)sc2-c2ccnc(N)c2)c1 | melting point | 132 to 133 °C |
